- ASSAY_CONTEXT: 303.15 K; 101.3 kPa; Liquid; Pycnometric method
Numbers after ± are expanded uncertainties.
PROPERTY: mass density
Answer format: number, then unit.

# mass density (compound: CCN(CC)CC [triethylamine] ) is 718.5 ± 0.3 kg/m3

# mass density (compound: C1COCCO1 [1,4-dioxane] ) is 1021.9 ± 0.6 kg/m3

# mass density (compound: CCCCN(CCCC)CCCC [tributylamine] ) is 770.1 ± 0.4 kg/m3

# mass density (compound: OCCO [1,2-ethanediol] ) is 1107.3 ± 0.6 kg/m3

# mass density (compound: CCCCCC [hexane] ) is 649.7 ± 0.4 kg/m3
